molecular target: NaV1.2 (Homo sapiens); assay: Sodium channel selectivity, NaV1.2; settings: read-out: EC50 against NaV1.2
Sequence (Q99250 whole entry): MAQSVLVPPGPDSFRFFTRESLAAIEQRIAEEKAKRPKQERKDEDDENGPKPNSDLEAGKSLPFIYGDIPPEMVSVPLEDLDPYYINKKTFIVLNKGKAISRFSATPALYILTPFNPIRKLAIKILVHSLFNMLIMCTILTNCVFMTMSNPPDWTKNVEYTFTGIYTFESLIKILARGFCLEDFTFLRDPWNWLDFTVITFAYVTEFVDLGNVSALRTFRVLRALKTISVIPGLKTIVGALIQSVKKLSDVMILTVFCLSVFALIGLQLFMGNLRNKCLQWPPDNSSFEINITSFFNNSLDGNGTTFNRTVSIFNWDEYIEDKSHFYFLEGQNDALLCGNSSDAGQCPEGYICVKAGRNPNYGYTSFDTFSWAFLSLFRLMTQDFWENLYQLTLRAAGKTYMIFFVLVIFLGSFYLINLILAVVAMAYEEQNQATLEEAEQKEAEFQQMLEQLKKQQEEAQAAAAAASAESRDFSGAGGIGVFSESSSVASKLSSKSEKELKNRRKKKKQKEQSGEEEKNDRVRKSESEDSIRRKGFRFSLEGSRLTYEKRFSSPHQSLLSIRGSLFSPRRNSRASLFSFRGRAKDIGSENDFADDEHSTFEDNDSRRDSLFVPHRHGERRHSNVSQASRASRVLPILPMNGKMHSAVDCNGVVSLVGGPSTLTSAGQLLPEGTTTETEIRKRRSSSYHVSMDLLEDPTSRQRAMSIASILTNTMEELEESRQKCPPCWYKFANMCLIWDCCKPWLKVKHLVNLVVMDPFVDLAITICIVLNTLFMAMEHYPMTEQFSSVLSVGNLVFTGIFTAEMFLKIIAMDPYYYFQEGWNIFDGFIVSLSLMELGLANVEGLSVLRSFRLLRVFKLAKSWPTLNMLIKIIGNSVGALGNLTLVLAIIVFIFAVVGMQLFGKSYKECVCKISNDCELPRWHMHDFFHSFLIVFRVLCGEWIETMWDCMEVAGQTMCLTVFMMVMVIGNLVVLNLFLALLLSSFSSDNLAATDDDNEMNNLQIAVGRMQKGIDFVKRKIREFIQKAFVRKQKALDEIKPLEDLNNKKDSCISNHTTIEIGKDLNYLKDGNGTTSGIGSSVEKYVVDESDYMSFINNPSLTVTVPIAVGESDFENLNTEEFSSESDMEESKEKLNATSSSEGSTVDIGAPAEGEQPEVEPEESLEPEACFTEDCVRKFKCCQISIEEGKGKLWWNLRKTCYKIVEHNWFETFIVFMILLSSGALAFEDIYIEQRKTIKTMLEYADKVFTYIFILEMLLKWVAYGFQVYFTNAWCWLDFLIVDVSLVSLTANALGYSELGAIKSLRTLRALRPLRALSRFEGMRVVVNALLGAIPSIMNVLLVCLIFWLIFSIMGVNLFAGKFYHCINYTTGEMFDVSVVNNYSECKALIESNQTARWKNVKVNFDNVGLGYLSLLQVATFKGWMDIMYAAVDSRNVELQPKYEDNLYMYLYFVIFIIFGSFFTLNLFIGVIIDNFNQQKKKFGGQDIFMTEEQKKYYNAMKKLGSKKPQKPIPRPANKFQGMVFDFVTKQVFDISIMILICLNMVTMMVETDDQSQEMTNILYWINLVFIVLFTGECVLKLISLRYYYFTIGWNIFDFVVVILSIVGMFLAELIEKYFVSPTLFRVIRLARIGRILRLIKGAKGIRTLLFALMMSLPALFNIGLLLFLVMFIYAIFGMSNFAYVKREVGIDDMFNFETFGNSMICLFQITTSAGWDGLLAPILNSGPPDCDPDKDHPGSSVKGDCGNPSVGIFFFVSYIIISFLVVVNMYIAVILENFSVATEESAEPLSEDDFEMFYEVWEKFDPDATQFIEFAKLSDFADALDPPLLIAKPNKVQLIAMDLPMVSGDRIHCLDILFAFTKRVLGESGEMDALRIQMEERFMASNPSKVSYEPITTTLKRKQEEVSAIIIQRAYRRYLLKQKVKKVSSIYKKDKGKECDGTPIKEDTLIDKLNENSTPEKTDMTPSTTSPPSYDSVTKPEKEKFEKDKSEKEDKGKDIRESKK
pEC50: −log10 of the molar value.
Measurement kind: pEC50

{"columns": ["Smiles structure", "Endpoint result"],
 "data": [
  ["Nc1ccc(Oc2ccc(C(c3ccc(Oc4ccc(N)cc4)cc3)(C(F)(F)F)C(F)(F)F)cc2)cc1", "< 4.00"]
]}

###

target: NaV1.7 (Homo sapiens, UniProt Q15858); test: Sodium channel selectivity, NaV1.7; type: cell-based; conditions: read-out: EC50 against NaV1.7
Sequence (Q15858 whole entry): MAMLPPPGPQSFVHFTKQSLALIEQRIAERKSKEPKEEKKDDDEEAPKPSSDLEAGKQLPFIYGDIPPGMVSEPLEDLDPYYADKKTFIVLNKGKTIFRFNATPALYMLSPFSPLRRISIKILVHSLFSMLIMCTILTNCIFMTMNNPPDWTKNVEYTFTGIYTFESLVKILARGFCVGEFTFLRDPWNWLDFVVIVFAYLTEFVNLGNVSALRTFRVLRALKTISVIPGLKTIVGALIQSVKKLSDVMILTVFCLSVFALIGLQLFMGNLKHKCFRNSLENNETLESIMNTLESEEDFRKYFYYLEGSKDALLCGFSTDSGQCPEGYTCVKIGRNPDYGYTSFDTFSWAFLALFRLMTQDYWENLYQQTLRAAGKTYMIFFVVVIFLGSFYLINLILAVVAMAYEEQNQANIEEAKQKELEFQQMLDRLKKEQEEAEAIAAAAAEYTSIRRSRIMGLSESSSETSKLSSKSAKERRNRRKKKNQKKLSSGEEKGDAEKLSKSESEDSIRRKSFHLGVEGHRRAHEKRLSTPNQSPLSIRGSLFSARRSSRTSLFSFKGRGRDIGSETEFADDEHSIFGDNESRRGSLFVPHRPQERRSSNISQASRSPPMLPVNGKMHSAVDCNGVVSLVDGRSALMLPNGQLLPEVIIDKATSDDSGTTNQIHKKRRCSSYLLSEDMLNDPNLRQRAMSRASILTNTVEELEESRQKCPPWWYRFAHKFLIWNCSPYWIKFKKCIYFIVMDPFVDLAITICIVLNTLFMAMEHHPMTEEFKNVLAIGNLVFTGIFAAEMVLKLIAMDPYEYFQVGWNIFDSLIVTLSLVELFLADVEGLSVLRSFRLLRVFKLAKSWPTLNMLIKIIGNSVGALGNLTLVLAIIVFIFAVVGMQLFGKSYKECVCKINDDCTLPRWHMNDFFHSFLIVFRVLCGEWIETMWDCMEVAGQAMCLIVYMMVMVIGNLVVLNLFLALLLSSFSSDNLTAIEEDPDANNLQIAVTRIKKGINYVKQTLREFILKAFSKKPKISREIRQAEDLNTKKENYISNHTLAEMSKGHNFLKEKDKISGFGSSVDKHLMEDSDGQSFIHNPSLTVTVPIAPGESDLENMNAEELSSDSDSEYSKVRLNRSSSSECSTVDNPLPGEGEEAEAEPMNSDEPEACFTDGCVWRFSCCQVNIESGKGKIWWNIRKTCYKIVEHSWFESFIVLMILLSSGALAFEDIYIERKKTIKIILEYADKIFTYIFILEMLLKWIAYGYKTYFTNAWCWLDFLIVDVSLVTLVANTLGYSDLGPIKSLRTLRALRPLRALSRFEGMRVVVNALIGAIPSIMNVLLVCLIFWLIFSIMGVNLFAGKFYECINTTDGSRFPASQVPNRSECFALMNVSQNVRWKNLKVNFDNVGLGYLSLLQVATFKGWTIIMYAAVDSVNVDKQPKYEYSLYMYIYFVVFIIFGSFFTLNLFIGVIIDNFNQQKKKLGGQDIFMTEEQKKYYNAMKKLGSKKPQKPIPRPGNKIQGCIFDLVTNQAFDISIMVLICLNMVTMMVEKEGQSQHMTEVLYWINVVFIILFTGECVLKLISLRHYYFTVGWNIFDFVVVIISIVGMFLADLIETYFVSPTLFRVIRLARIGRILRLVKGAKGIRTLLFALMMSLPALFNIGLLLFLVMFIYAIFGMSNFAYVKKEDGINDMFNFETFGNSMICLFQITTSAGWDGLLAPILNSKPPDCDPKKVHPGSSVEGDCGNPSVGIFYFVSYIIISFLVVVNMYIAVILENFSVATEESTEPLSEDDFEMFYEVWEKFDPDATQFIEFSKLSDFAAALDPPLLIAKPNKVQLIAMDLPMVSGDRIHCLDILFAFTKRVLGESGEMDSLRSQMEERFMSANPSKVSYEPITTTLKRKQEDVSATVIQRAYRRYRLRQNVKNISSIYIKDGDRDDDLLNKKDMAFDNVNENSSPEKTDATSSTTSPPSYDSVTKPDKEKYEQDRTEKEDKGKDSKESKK
Measurement kind: EC50

{"columns": ["Compound", "Measurement kind", "Endpoint result"],
 "data": [
  ["Nc1ccc(Oc2ccc(C(c3ccc(Oc4ccc(N)cc4)cc3)(C(F)(F)F)C(F)(F)F)cc2)cc1 [GI‐530159]", "EC50", "> 100 µM"]
]}
